systemTested: HNF4alpha8 (COS-7 nuclear extract) (Homo sapiens, UniProt P41235-5 1-452)
Sequence: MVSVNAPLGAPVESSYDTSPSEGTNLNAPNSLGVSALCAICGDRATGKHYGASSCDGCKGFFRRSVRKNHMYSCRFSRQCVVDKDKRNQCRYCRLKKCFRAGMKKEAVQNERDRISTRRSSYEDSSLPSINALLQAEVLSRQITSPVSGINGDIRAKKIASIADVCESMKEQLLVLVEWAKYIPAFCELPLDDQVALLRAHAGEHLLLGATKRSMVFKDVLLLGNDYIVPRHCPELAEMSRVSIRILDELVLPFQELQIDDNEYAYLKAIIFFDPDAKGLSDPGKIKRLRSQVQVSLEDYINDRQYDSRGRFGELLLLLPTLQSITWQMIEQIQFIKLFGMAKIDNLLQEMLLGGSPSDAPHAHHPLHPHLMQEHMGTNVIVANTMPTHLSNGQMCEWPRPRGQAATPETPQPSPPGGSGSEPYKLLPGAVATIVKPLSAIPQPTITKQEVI
assayOverview: protein-binding microarray; COS-7 nuclear extract on double-stranded Agilent 4x180k PBM; binding buffer, salt, pH and temperature not given in the material; high values mean tight binding
experimentalParameters: chain copies: 2; label: 3' end of strand 1 on the slide; dsDNA, one strand shown
Whole data set: some 18,000 sequences, median “log2 normalized intensity” near 0.36, cut for the highest 2% near 7.3. Shown is part of a subset that was picked to be rich in the highest values.
endpointName: binding signal (log2 normalized intensity)
Form entry: value (log2 normalized intensity) — number only.

Exercise: Request body: readout binding signal, system HNF4alpha8 (COS-7 nuclear extract) (Homo sapiens, UniProt P41235-5 1-452), query ACACAGGACTTGATCCAGGGCAAAGGTCATGCCTAGGGAGATTAGAGTATCGGTCGA . Return the value.
Key: 7.91

Exercise: Please provide the recorded binding signal for TCTGATGCCATGATAAGCAGTGTGGACTTTGCCTAGGGAGATTAGAGTATCGGTCGA , tested on HNF4alpha8 (COS-7 nuclear extract) (Homo sapiens, UniProt P41235-5 1-452).
Key: 7.54

Exercise: What binding signal appears in the records for this sequence with HNF4alpha8 (COS-7 nuclear extract) (Homo sapiens, UniProt P41235-5 1-452)? TGCCATGATAAGCAGTGTGGACTTTTTCCTGCCTAGGGAGATTAGAGTATCGGTCGA
Key: 3.69

Exercise: Param readout = binding signal; param system = HNF4alpha8 (COS-7 nuclear extract) (Homo sapiens, UniProt P41235-5 1-452); param query = AGCAAACCTGTCTCTCTGCATTCCTCCTGGGCCTAGGGAGATTAGAGTATCGGTCGA ; response: value
Key: 0.684
